inhibition at 25 µM values, listed per item
# EXPERIMENTAL_SYSTEM: GAβ-dependent amyloid fibril formation (Human Aβ1-40 + GM1-containing liposome) (Homo sapiens, UniProt P05067)
# Construct: Human Aβ1-40 (cat. #4307-v, prepared by Peptide Institute); purchased Peptide Institute 4307-v
# Sequence (P05067 672-711 limits assumed): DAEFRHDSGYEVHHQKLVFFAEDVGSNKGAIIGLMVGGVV
# PROTOCOL_DETAILS: Thioflavin T (ThT) assay of GAβ-dependent amyloid fibril formation (Aβ1-40 with GM1-containing liposome)
# Type: biochemical
# DETAILS: inhibition rate against amyloid fibril formation, final concentration of the compound 25 μM; read-out: Inhibitory activity ABC evaluation

Here are 2 compounds together with their reported answers.
MOL: O=C(N[C@@H](CO)c1nc(-c2cccc(C(F)(F)F)c2)no1)c1ccc(N2CCCC2)cc1
RESULT: > 80%
--
MOL: O=C(N[C@@H](CO)c1nc(-c2ccc3[nH]ccc3c2)no1)c1ccc(F)cc1
RESULT: > 80%

Sample `O=C(N[C@@H](CO)c1nc(-c2cccc(C(F)(F)F)c2)no1)c1cc(F)cc(Cl)c1` ; inhibition at 25 µM observed: > 80%

Hello, the source for this data is patent US10538516B2, in case you need it.
